# measured on: Nucleoprotein (Lymphocytic choriomeningitis virus (strain Armstrong))
# experiment summary: qHTS for Inhibitors of the Functional Ribonucleoprotein Complex (vRNP) of Lymphocytic Choriomeningitis Arenaviruses (LCMV): LCMV Primary Screen - GLuc reporter signal (AID 1347086); further: nearly all actives have a fitted effect of over 70% in size
# protocol conditions: LCMV minigenome vRNP cell assay, Gaussia luciferase reporter; series mostly up to 57.5 µM
Inconclusive results are not listed. The source made the active and inactive calls. The call rests on the fitted dose curve.
Reply using exactly one outcome from class 1 = active, class 0 = inactive

smiles_str=Cn1cc(-c2ccc3nnc(Sc4ccc5ncccc5c4)n3n2)cn1 class="class 0"
smiles_str=CC1=C(O)C(=O)C=C2C1=CC=C1[C@@]2(C)CC[C@@]2(C)[C@@H]3C[C@](C)(C(=O)O)CC[C@]3(C)CC[C@]12C class="class 1"
smiles_str=NC(=O)Nc1cc(-c2cccc(F)c2)sc1C(=O)N[C@H]1CCCNC1 class="class 1"
smiles_str=CCC=CC[C@H]1C(=O)CC[C@@H]1CC(=O)OC class="class 0"

Attention now shifts to the item below.
Look up the recorded call for `Cc1[nH]nc2ccc(-c3cncc(OC[C@@H](N)Cc4c[nH]c5ccccc45)c3)cc12` in this test.
class 1

====

# experiment summary: qHTS of pediatric cancer cell lines to identify multiple opportunities for drug repurposing: Primary screen for control Hh wild type fibroblast cells (AID 1347106); further: nearly all actives have a fitted effect of over 55% in size
# protocol conditions: Hh wild-type fibroblast viability, CellTiter-Glo luminescence, 48 h; series mostly up to 46 µM
Inconclusive results are not listed. Activity calls are given as the source filed them. Calls come from the whole dose curve; as a rule, active = well fitted cell-killing curve with a large enough effect; inconclusive = small, poorly fitted or top-dose-only effect; inactive = flat fitted curve, though single readings scatter.
Hello, when you answer, please use one of the following outcomes: active, inactive

compound=COC[C@H]1OC(=O)c2coc3c2[C@@]1(C)C1=C(C3=O)[C@@H]2CC[C@H](O)[C@@]2(C)C[C@@H]1OC(C)=O class=inactive
compound=O=c1[nH]c2ccc(Cl)cc2c(N[C@@H]2CN3CCC2CC3)c1-c1nc2ccccc2[nH]1 class=active
compound=O=C1C(I)=CC(=C(c2cc(I)c(O)c(I)c2)c2ccccc2C(=O)O)C=C1I class=inactive

Write down the call the test reported for this compound. Item: `CC(=O)N(C)c1cccc(-c2ccnc3c(C(=O)c4cccs4)cnn23)c1`
inactive

Quick one: O=S(=O)(CC1CS1)c1ccc(Oc2ccccc2)cc1 (stereo not given)
inactive

====

# experiment summary: Quantitative High-Throughput drug screen in 47 multiple myeloma cell lines against the NCATS MIPE library collection: PE2_PLB cell viability assay (AID 1919869); further: nearly all actives have a fitted effect of over 35% in size
# protocol conditions: PE2_PLB myeloma cells viability, ATP luminescence, 48 h; series mostly up to 45.8 µM
Records with an inconclusive call do not appear. Activity calls are given as the source filed them. Calls follow the shape of the dose curve; as a rule, active = well fitted cell-killing curve with a large enough effect; inconclusive = small, poorly fitted or top-dose-only effect, or effect the other way; inactive = no such curve, though single readings can be large or run the other way.
Choose the fitting class; nothing outside active, inactive is accepted.

molecule="CC(=CCCC1=CCC(C2=CC(=O)OC2O)OC1O)CCC1=C(C)CCCC1(C)C (centres undefined)" class=inactive

In the following, a different molecule is considered.
Returns: the outcome recorded for `CC[C@H]1C=CC=CC[C@@H](C)[C@H](O)[C@@](C)(O)C(=O)[C@@H](C)[C@H](O)[C@@H](C)C(=O)[C@@H](C)[C@H](O)[C@@H](C)C=CC(=O)O[C@@H]2[C@@H](C)[C@H](CC1)O[C@]1(CC[C@H](C)[C@H](C[C@@H](C)O)O1)[C@H]2C` in this assay.
active

====

# Tested on: Tov112D
# experiment summary: Primary qHTS to identify gynecologic anti-cancer compounds using libraries of approved drugs and bioactive compounds (AID 1345084); further: nearly all actives have a fitted effect of over 55% in size
# protocol conditions: Gynecologic cancer cell panel viability, ATPlite luminescence, 48 h; series mostly up to 57.5 µM
Results filed as inconclusive are left out. Activity calls are given as the source filed them. The call rests on the fitted dose curve; in most records, active means well fitted cell-killing curve with a large enough effect; inconclusive means small, poorly fitted or top-dose-only effect, or effect the other way; inactive means flat fitted curve, though single readings scatter.
recorded endpoint: outcome

compound=COCCOCCO reported_measurement=inactive
compound="CC1(C)CC/C(=C/c2ccc(Cl)cc2)C1(O)Cn1cncn1 (stereo not drawn)" reported_measurement=inactive
compound=CCCCOC(=O)c1ccccc1C(=O)OCc1ccccc1 reported_measurement=inactive
